system: KM12; assay: NCI tumour cell line growth inhibition, 48 h
Calls of active or inactive are those of the source. Cut-off read from the data, not from the text of the source: active = GI50 up to about 1.1 µM and inactive = higher.
Outcome codes: true (1) = active, false (0) = inactive

* CN(Cc1cnc2nc(N)nc(N)c2n1)c1ccc(C(=O)NCS(=O)(=O)O)cc1 | false (0)
* COC(=O)C1=C(OC(=O)/C(=C/c2ccc(Cl)cc2)c2ccccc2)C(C(=O)OC)[C@@]2(O)[C@@H](C(=O)OC)[C@H](C)C[C@@H]1[C@@H]2C(=O)OC (stereo not given in full) | false (0)
* N#Cc1c(=O)c2ccccc2n2c1[nH]c1ccccc12 | false (0)
* Cc1ccc(/N=C2N=C(Cl)/C(=C\c3ccco3)N\2)cc1 | false (0)
* CC1(C)CCC2=C(O1)/C(=N\Nc1ccc(S(N)(=O)=O)cc1)c1ccccc1C2=O | false (0)
* O=C1/C(=C/c2cccc(Br)c2)Cc2ccccc21 | false (0)
* COc1ccc(CCNC(=O)Cc2cc(OC)c(OC)cc2CO)cc1OC | false (0)
* CCC(C#N)(c1ccccc1)N(CCc1ccccc1)C(=O)c1ccccc1 (stereo not given) | false (0)
* COC(=O)CCC(=O)C(CC(=O)OC)C(=O)CCC(=O)NCCc1ccccc1 (stereo not given) | false (0)
* C/C(CC(=O)CCCC(=O)Nc1ccc(Cl)cc1Cl)=N/NC(=O)CC#N | false (0)
* O=C(NN1C(=O)C(Cl)C1c1ccc(Cl)cc1)c1c(Cl)c(Cl)c(Cl)c(Cl)c1-c1nc2ccccc2[nH]1 (stereo not given) | false (0)
* C=C1c2[nH]c3ccccc3c2C2C(CC)C1CCN2C (stereo not given) | false (0)
* CC(=O)OCC1OC(n2c(-c3ccc(C)cc3)cc(-c3ccccc3)c(C#N)c2=O)C(OC(C)=O)C(OC(C)=O)C1OC(C)=O (stereo not given) | false (0)
* CCSCCC(N)C(=O)O (stereo not given) | false (0)
* CC(C)=CC(=O)C[C@H]1C(=O)O[C@@H]2C[C@H]3C(C)=CC(=O)[C@@H](O)[C@]3(C)[C@H]3[C@@]4(O)OC[C@]32[C@@H]1[C@@H](C)[C@H]4O | true (1)
